# System: 817829-284-R-J1-PDC complex spheroids, viability;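 note: spheroids exposed to the agents for seven days before readout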
# Test Name: Anticancer human tumor 817829-284-R-J1-PDC patient-derived colon adenocarcinoma cell line growth inhibition [CLK]
# Experimental Context: second compound 10 µM; first compound 0.316 µM; active compounds read low
A collection of molecules and their measured viability, T/C
Express the result in % but write the number alone.

Observe how each entry below is paired with its result.
Molecule	viability, T/C (%)
COc1cccc2c1C(=O)c1c(O)c3c(c(O)c1C2=O)CC(O)(C(=O)CO)CC3OC1CC(N)C(O)C(C)O1 (stereo not given) + CN1CCN(c2cc(C(=O)Nc3cc4cc(-c5cnn(C)c5)ccc4cn3)ccn2)CC1	0.11
C#Cc1c(F)ccc2cc(O)cc(-c3ncc4c(N5CC6CCC(C5)N6)nc(OCC56CCCN5CC(F)C6)nc4c3F)c12 (stereo not given) + CN1CCN(c2cc(C(=O)Nc3cc4cc(-c5cnn(C)c5)ccc4cn3)ccn2)CC1	0.11
C#Cc1c(F)ccc2cc(O)cc(-c3ncc4c(N5CC6CCC(C5)N6)nc(OCC56CCCN5CC(F)C6)nc4c3F)c12 (stereo not given) + CNC(=O)c1ccc(Nc2nc(OC3CCCC3)c3c(-c4ccc5nc(C)oc5c4)c[nH]c3n2)c(OC)c1	22.6

CC1COCCN1c1cc(C2(S(C)(=N)=O)CC2)nc(-c2ccnc3[nH]ccc23)n1 (stereo not given) + CN1CCN(c2cc(C(=O)Nc3cc4cc(-c5cnn(C)c5)ccc4cn3)ccn2)CC1 yielded viability, T/C of 0.13

CC(=O)O[C@H]1C(=O)[C@@]2(C)[C@H]([C@H](OC(=O)c3ccccc3)[C@]3(O)C[C@H](OC(=O)[C@H](O)[C@@H](NC(=O)c4ccccc4)c4ccccc4)C(C)=C1C3(C)C)[C@]1(OC(C)=O)CO[C@@H]1C[C@@H]2O + CNC(=O)c1ccc(Nc2nc(OC3CCCC3)c3c(-c4ccc5nc(C)oc5c4)c[nH]c3n2)c(OC)c1 yielded viability, T/C of 29.5
